- assayed.system: T1, cynomolgus DKK1 (cynomolgus monkey (Macaca fascicularis), UniProt A0A7N9IE82 32-266)
- T1 construct: also called cyno DKK1; monkey DKK1 (Novartis)
- T1 sequence: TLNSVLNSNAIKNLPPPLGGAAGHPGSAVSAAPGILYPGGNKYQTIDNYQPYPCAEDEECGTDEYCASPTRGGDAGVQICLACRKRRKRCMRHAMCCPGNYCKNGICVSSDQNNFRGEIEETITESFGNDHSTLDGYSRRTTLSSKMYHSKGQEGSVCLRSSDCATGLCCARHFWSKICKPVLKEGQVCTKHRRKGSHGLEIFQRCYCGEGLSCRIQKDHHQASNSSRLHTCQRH
- experiment.description: SPR (Biacore), DKK1 immobilised on CM5 chip, Fab as analyte
test.readout: Kd (nM)
Kindly answer with a numeric value in nM, unit omitted.

Solved cases (2 shown):
# binder, test.readout, value.reported
records = [
    ("MOR04454 (Fab, V domains shown, Fab with C-terminal FLAG and 6xHis tags) VH: QVQLVESGGGLVQPGGSLRLSCAASGFTFSNYGLHWVRQAPGKGLEWVSSISYYGSSTYYADSVKGRFTISRDNSKNTLYLQMNSLRAEDTAVYYCARDGSHMDKPPGYVFAFWGQGTLVTVSS VL: DIQMTQSPSSLSASVGDRVTITCRASQGIKNYLNWYQQKPGKAPKLLIGAASSLQSGVPSRFSGSGSGTDFTLTISSLQPEDFATYYCLQYYGMPPTFGQGTKVEIKR", "Kd", 2.7),
    ("MOR04461 (Fab, V domains shown, Fab with C-terminal FLAG and 6xHis tags) VH: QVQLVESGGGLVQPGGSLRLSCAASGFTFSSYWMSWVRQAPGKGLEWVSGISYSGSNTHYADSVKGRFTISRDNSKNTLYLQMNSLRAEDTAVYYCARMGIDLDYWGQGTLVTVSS VL: DIALTQPASVSGSPGQSITISCTGTSSDVGGFNYVSWYQQHPGKAPKLMIHDGSNRPSGVSNRFSGSKSGNTASLTISGLQAEDEADYYCSTWDMTVDFVFGGGTKLTVLG", "Kd", 7.3),
]

Entry MOR04470 (Fab, V domains shown, Fab with C-terminal FLAG and 6xHis tags) VH: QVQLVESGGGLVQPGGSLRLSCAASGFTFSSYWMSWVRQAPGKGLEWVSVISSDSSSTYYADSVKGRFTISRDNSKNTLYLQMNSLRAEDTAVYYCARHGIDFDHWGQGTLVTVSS VL: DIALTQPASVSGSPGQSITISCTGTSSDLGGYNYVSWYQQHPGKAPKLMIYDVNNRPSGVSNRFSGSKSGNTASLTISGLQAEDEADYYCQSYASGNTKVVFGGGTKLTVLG ; Kd = 1.7
